- tested-target: Human immunodeficiency virus type 1 integrase (Human immunodeficiency virus 1, UniProt Q7ZJM1)
- Sequence (Q7ZJM1 whole entry): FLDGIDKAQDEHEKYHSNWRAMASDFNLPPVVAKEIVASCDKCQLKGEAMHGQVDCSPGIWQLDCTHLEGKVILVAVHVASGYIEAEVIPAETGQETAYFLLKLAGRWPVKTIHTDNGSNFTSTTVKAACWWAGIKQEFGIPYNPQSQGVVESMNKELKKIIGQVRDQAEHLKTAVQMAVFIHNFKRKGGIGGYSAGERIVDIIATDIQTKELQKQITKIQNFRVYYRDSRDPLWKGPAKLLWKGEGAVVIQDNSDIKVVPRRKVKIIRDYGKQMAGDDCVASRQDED
- test-name: Inhibitory activity against 3'-processing of DNA by HIV-1 integrase
- Format: functional
pIC50: −log10 of the molar value.

compound: O=c1cc(O)c2ccc(O)cc2o1
qualifier: =
pIC50: 3.52
--
compound: O=c1oc2ccccc2c(O)c1Cc1c(O)c2ccccc2oc1=O [DICUMAROL]
qualifier: <
pIC50: 3.52
--
compound: O=c1oc2ccccc2c(O)c1C1c2c(c3ccccc3oc2=O)Oc2c1c(=O)oc1ccccc21
qualifier: =
pIC50: 4.45
--
compound: O=c1c(Cc2ccc(Cc3c(O)oc4ccccc4c3=O)cc2)c(O)oc2ccccc12
qualifier: =
pIC50: 4.09
--
compound: O=c1c(C(c2ccc3ccccc3c2)c2c(O)oc3cc(O)ccc3c2=O)c(O)oc2cc(O)ccc12
qualifier: =
pIC50: 5.38
--
compound: O=c1c(Cc2c(O)oc3cc(O)ccc3c2=O)c(O)oc2cc(O)ccc12
qualifier: =
pIC50: 4.33
--
compound: O=c1c(C(c2ccc(C(c3c(O)oc4ccccc4c3=O)c3c(O)oc4ccccc4c3=O)cc2)c2c(O)oc3ccccc3c2=O)c(O)oc2ccccc12
qualifier: =
pIC50: 5.70
--
compound: O=c1cc(O)c2ccccc2o1 [4-HYDROXYCOUMARINS]
qualifier: <
pIC50: 4.00
--
compound: O=c1c(C(c2ccccc2)c2c(O)oc3cc(O)ccc3c2=O)c(O)oc2cc(O)ccc12
qualifier: =
pIC50: 4.76
--
compound: O=c1c(C(c2ccc(C(c3c(O)oc4cc(O)ccc4c3=O)c3c(O)oc4cc(O)ccc4c3=O)cc2)c2c(O)oc3cc(O)ccc3c2=O)c(O)oc2cc(O)ccc12
qualifier: =
pIC50: 6.43
